- target_or_system: human soluble ENPP1 (Homo sapiens, UniProt P22413)
- Construct: 20 ng of human soluble ENPP1
- Sequence (P22413 103-925 limits assumed): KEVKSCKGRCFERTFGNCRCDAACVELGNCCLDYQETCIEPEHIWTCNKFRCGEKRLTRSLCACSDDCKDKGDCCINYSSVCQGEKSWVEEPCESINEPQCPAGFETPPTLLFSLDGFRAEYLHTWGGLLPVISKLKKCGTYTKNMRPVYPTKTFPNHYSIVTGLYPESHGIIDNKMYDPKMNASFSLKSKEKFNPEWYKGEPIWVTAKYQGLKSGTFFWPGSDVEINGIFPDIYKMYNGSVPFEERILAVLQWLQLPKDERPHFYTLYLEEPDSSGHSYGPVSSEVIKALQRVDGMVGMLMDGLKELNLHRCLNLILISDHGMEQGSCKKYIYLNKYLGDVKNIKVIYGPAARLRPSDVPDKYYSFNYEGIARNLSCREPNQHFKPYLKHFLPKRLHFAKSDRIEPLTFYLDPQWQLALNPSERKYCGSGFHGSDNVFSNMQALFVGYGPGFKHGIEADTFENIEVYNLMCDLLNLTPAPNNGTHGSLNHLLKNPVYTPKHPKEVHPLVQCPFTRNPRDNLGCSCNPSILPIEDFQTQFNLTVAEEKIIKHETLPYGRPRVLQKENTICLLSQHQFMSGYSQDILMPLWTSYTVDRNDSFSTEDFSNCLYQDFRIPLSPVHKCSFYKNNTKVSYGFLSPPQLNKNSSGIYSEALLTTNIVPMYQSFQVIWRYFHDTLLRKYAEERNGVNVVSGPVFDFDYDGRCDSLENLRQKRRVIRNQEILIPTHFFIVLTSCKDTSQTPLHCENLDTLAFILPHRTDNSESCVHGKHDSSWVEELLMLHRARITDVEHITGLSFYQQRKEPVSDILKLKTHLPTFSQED
- test: ENPP1 activity assay using p-Nitrophenyl-5′-TMP as a substrate
- Assay type: biochemical
parameter_measured: IC50

Take a look at these entries with their results.
chemical_string=COc1ccc2c(ncc3nnn(Cc4ccc(S(N)(=O)=O)c(F)c4)c32)n1 parameter_measured=IC50 experimental_value="1.78 nM"
chemical_string=COc1ccc2c(ncc3nc(C)n(Cc4ccc(S(N)(=O)=O)cn4)c32)n1 parameter_measured=IC50 experimental_value="0.58 nM"

We now examine a further molecule.
## Input Look up IC50: COc1ccc2c(ncc3nc(C)n(Cc4ccc(S(N)(=O)=O)c(F)c4)c32)n1
## Output 1 nM
